These data points were gathered from patent US9925166B2.

# Procedure Text: Plasma concentration after intraduodenal administration (Example 8)
# Assay type: in vivo, Sprague-Dawley rats
# Conditions Used: male, Sprague-Dawley, rat, plasma, other: intraduodenal, 30 mg/kg, 30 mg/kg intraduodenal, male rats, time point 8 hr; read-out: ZGN-201 Conc. in Rat Plasma, Mean
Measured Metric: concentration at 8 hr (ng/mL)
Quick reminder: number only, in ng/mL, skip the unit.

Give its concentration at 8 hr value. Item: `CO[C@@H]1[C@H](OC(=O)/C=C/C=C/C=C/C=C/C(=O)O)CC[C@]2(CO2)[C@H]1[C@@]1(C)O[C@@H]1CC=C(C)C`
20

###

# Procedure Text: Plasma concentration after oral administration in a non-enterically coated capsule (Example 7)
# Type: in vivo, Sprague-Dawley rats
# Conditions Used: male, Sprague-Dawley, rat, plasma, oral, 30 mg/kg, 30 mg/kg capsule oral, male rats, time point 8 hr; read-out: ZGN-201 Conc. in Rat Plasma, Mean
Measured Metric: concentration at 8 hr (ng/mL)
Quick reminder: number only, in ng/mL, skip the unit.

Give its concentration at 8 hr value. Item: `CO[C@@H]1[C@H](OC(=O)/C=C/C=C/C=C/C=C/C(=O)O)CC[C@]2(CO2)[C@H]1[C@@]1(C)O[C@@H]1CC=C(C)C`
75
